Ref: patent US20240092930A1

Target: T1, recombinant human Trop-2-his protein (ACCESSION NO.: NP_002344.2, AA 1-274) (human, UniProt P09758 27-274)
T1 construct: range 27-274; also called recombinant human Trop-2 protein; recombinant human Trop-2 extracellular domain; not shown: his tag
T1 sequence (looked up): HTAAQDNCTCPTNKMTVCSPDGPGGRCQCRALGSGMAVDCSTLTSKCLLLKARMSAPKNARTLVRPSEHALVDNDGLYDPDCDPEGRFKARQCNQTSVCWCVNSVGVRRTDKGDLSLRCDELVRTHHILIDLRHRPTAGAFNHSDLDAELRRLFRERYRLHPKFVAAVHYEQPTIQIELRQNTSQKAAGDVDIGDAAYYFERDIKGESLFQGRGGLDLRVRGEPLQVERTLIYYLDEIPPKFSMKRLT
Experiment: BLI, antibody on AHC sensor, Trop-2-his 60 nM
PARAMETER: pKd
Give bare numbers, as −log10 of the molar value.

Example entries begin here.
BINDER: h4-3-11 (antibody, human IgG1, kappa, V domains shown) VH: EVQLVQSGPEVKKPGASVKVSCKASGFTFTDYVIGWVRQAPGQGLEWIGEIYLGSGTIYYTQKFKGRVTMTADTSTSTAYMELSSLRSEDTAVYYCARGSIFPFDYWGQGTLVTVSS VL: DIQLTQSPSSLSASVGDRVTITCSASSSVSYMYWYQQKPGKAPKLLIYDASTLASGVPSRFSGSGSGTDFTLTISSLQPEDFATYYCQQWSSYPYTFGQGTKLEIKR
pKd: 9.10
//
BINDER: h4-3-17 (antibody, human IgG1, kappa, V domains shown) VH: EVQLVQSGPEVKKPGASVKVSCKASGFTFTDYVIGWVRQAPGQGLEWIGEIYLGSGTIYYTEKFKGRVTMTADTSTSTAYMELSSLRSEDTAVYYCARGSIFPFDYWGQGTLVTVSS VL: DIQLTQSPSSLSASVGDRVTITCSASSSVSYMYWYQQKPGKAPKLLIYDTSTLASGVPSRFSGSGSGTDFTLTISSLQPEDFATYYCQQWNSYPYTFGQGTKLEIKR
pKd: 9.27

We next turn to a different binder, shown below.
Query block: Which pKd is reported for this binder? h4-3-19 (antibody, human IgG1, kappa, V domains shown) VH: EVQLVQSGPEVKKPGASVKVSCKASGFTFTDYVIGWVRQAPGQGLEWIGEIYLGSGTIYYTQKFKGRVTMTADTSTSTAYMELSSLRSEDTAVYYCARGSIFPFDYWGQGTLVTVSS VL: DIQLTQSPSSLSASVGDRVTITCSASSSVSYMYWYQQKPGKAPKLLIYDTSTLASGVPSRFSGSGSGTDFTLTISSLQPEDFATYYCQQWNSYPYTFGQGTKLEIKR
Result block: 9.22
